test: Stability of the compound in mouse plasma after 2 hrs; type: ADME, cell-free; settings: read-out: Stability
assay.readout: remaining at 2 h

Record Cc1cnc(-c2ccccc2C(C)C)nc1NCc1ccc(-n2ccnn2)cc1 . Reported remaining at 2 h: 99%

----------
target: Ubiquitin carboxyl-terminal hydrolase 1/WD repeat-containing protein 48 (Homo sapiens); test: Inhibition of human USP1/UAF1 using ubiquitin-rhodamine110 substrate by fluorescence assay
pIC50: −log10 of the molar value.
Given measured pIC50, output true if it is greater than or equal to 6 and false if not.

For orientation, consider the following solved cases.
- molecule: "Cc1ccc(CNc2nc(-c3ccccc3C(F)(F)F)nc3ccccc23)s1"
  group: "false"
- molecule: "FC(F)(F)c1ccccc1-c1nc(NCc2ccc(-c3ccncc3)cc2)c2ccccc2n1"
  group: "false"
- molecule: "CC(C)c1ccccc1-c1nc(NCc2ccc(-c3cccnc3)cc2)c2sccc2n1"
  group: "true"
- molecule: "Cc1ccc(N2CCC(CNc3nc(-c4ccccc4C(C)C)ncc3C)CC2)cn1"
  group: "true"

Exercise: Does pIC50 meet or surpass 6 for Cc1cnc(-c2ccccc2C(C)C)nc1NCc1cccs1 ?
Key: true

Exercise: Does pIC50 meet or surpass 6 for Fc1ccccc1-c1nc(NCc2ccc(-c3cccnc3)cc2)c2ccccc2n1 ?
Key: false

----------
target: Ubiquitin carboxyl-terminal hydrolase 1/WD repeat-containing protein 48 (Homo sapiens); test: Inhibition of human USP1/UAF1 using ubiquitin-rhodamine110 substrate by fluorescence assay
pIC50: −log10 of the molar value.
Given measured pIC50, output Fulfilled if it is greater than or equal to 6 and Not fulfilled if not.

For orientation, consider the following solved cases.
- smi: "FC(F)(F)c1ccccc1-c1nc(NCc2ccc(-c3ccc(Cl)cc3)cc2)c2ccccc2n1"
  group: "Not fulfilled"
- smi: "Cc1ccc(-c2ccc(CNc3nc(-c4ccccc4C(C)C)ncc3C)cc2)cn1"
  group: "Fulfilled"
- smi: "FC(F)(F)c1ccccc1-c1nc(NCc2ccc(Cl)cc2)c2ccccc2n1"
  group: "Not fulfilled"
- smi: "N#Cc1ccc(CNc2nc(-c3ccccc3C(F)(F)F)nc3ccccc23)cc1"
  group: "Not fulfilled"
- smi: "CC(C)c1ccccc1-c1nc(NCc2ccc(-c3cccnc3)cc2)c2ccccc2n1"
  group: "Fulfilled"
- smi: "CC(=O)c1ccccc1-c1ncc(C)c(NCc2ccc(-c3cccnc3)cc2)n1"
  group: "Not fulfilled"
- smi: "CSc1cnc(-c2ccccc2C(C)C)nc1NCc1ccc(-c2cccnc2)cc1"
  group: "Fulfilled"

Would you kindly look at the next entry?
Exercise: Does pIC50 meet or surpass 6 for Clc1ccccc1-c1nc(NCc2ccc(-c3cccnc3)cc2)c2ccccc2n1 ?
Key: Not fulfilled

----------
experiment: Chemical stability of the compound in PBS buffer at pH 7.4 after 48 hrs; assay type: physicochemical; conditions: read-out: Stability
assay.readout: remaining at 48 h (%)
Your answer is read as %, so omit the unit and give the number.

Record Cc1cnc(-c2ccccc2C(C)C)nc1NCc1ccc(-n2ccnn2)cc1 . Reported remaining at 48 h: 99

----------
System: Ubiquitin carboxyl-terminal hydrolase 1/WD repeat-containing protein 48 (Homo sapiens) | Read-out: pIC50
# pIC50 = -log10(concentration in molar units)

Examples with their reported pIC50 follow.
- smi: "FC(F)(F)c1cc(-c2ccc(CNc3nc(-c4ccccc4C(F)(F)F)nc4ccccc34)cc2)ccn1"
  pIC50: 5.31
- smi: "Cc1cnc(-c2ccccc2C(C)C)nc1NCC1CCN(C2COC2)CC1"
  pIC50: 4.87
- smi: "CC(C)c1ccccc1-c1nc2c(c(NCc3ccc(-c4cccnc4)cc3)n1)CCC2"
  pIC50: 6.80
- smi: "Cc1cnc(-c2ccccc2C(C)C)nc1NCC1CN(c2cccnc2)C1"
  pIC50: 4.66

Okay, next one:
Readout pIC50 for Cc1cnc(-c2ccccc2C2CCC2)nc1NCc1ccc(-n2ccnn2)cc1 , test system Ubiquitin carboxyl-terminal hydrolase 1/WD repeat-containing protein 48 (Homo sapiens), was 6.74

----------
target: Ubiquitin carboxyl-terminal hydrolase 1/WD repeat-containing protein 48 (Homo sapiens, UniProt O94782)
Sequence (O94782 whole entry): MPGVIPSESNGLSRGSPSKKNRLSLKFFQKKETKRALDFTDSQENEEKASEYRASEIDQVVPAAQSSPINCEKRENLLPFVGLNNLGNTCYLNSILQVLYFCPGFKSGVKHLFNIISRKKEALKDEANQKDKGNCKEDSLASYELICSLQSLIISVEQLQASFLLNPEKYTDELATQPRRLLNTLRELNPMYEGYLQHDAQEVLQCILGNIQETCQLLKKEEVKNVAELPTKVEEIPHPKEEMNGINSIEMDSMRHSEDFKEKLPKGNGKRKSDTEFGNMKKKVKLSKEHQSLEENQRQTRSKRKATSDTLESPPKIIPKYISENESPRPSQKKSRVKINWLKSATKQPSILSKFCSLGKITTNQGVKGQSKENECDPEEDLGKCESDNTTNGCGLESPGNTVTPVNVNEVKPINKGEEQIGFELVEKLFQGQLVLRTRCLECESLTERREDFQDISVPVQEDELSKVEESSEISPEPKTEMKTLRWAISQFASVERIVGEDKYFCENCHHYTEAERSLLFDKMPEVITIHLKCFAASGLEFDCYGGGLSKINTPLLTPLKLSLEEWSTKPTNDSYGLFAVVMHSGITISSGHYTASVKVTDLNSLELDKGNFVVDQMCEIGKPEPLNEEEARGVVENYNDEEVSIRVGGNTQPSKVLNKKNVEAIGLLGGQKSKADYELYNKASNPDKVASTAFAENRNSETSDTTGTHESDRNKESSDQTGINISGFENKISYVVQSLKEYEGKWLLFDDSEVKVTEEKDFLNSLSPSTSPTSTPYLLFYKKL
Sequence (Q8TAF3 whole entry, further chain): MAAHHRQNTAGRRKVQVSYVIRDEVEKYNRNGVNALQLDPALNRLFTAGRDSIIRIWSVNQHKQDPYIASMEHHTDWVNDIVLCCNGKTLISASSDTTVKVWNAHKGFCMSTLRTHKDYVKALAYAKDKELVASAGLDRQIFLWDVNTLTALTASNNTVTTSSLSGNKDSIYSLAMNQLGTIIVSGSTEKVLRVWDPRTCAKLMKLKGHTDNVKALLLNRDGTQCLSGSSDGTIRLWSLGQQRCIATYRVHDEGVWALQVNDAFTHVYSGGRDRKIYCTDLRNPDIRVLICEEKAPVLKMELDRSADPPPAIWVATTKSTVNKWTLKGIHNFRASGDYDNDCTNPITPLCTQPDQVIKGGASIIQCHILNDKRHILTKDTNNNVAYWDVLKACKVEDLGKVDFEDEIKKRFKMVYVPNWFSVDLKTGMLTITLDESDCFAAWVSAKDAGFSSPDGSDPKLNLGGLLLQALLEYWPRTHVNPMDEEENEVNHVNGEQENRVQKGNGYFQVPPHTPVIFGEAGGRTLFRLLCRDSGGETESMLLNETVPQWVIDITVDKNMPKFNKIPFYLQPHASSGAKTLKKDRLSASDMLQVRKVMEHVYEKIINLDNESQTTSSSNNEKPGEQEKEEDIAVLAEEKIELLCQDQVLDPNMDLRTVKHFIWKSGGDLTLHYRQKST
Parameter IC50: see the listing below.
Your answer is read as nM, so omit the unit and give the number.

Examples with their reported IC50 follow.
- compound: "Cc1cnc(-c2ccccc2C(C)C)nc1NCc1cccnc1"
  IC50 / nM: 1300
- compound: "CC(C)c1ccccc1-c1ncc(N)c(NCc2ccc(-c3cccnc3)cc2)n1"
  IC50 / nM: 310
- compound: "Cc1cnc(-c2ccccc2C(C)C)nc1NCc1ccc(-c2cccnc2)cc1"
  IC50 / nM: 70
- compound: "FC(F)(F)c1ccc(CNc2nc(-c3ccccc3C(F)(F)F)nc3ccccc23)cc1"
  IC50 / nM: 8900
- compound: "FC(F)(F)c1ccccc1-c1nc(NCC#Cc2cccnc2)c2ccccc2n1"
  IC50 / nM: 8900

Okay, next one:
Record FC(F)(F)c1ccccc1-c1nc(NCc2ccc(N3CCOCC3)cc2)c2ccccc2n1 . Reported IC50: 10400

----------
System: Ubiquitin carboxyl-terminal hydrolase 1/WD repeat-containing protein 48 (Homo sapiens) | Read-out: IC50
Your answer is read as nM, so omit the unit and give the number.

- molecule: "FC(F)(F)c1ccccc1-c1nc(NCc2ccc(-c3cncnc3)cc2)c2ccccc2n1"
  numeric.readout: 3000
- molecule: "COc1ccccc1-c1nc(NCc2ccc(-c3cccnc3)cc2)c2ccccc2n1"
  numeric.readout: 940
- molecule: "FC(F)(F)c1ccccc1-c1nc(NCc2ccc(-c3ccccc3)cc2)c2ccccc2n1"
  numeric.readout: 3700
- molecule: "Cc1cc(NCc2ccc(-c3cccnc3)cc2)nc(-c2ccccc2C(C)C)n1"
  numeric.readout: 210
- molecule: "FC(F)(F)c1ccccc1-c1nc(NCc2ccc3c(c2)OCO3)c2ccccc2n1"
  numeric.readout: 8400
- molecule: "Cc1cnc(-c2ccccc2C(C)O)nc1NCc1ccc(-c2cccnc2)cc1 (configuration not stated)"
  numeric.readout: 2000

Readout IC50 for CCc1ccccc1-c1nc(NCc2ccc(-c3cccnc3)cc2)c2ccccc2n1 , test system Ubiquitin carboxyl-terminal hydrolase 1/WD repeat-containing protein 48 (Homo sapiens), was 780

Readout IC50 for CC(C)c1ccccc1-c1ncc(F)c(NCc2ccc(-c3cccnc3)cc2)n1 , test system Ubiquitin carboxyl-terminal hydrolase 1/WD repeat-containing protein 48 (Homo sapiens), was 110

Readout IC50 for Cc1cnc(-c2ccccc2C(C)C)nc1NCC1CCN(c2cccnc2)C1 (configuration not stated) , test system Ubiquitin carboxyl-terminal hydrolase 1/WD repeat-containing protein 48 (Homo sapiens), was 800

Readout IC50 for COc1ccc(CNc2nc(-c3ccccc3C(F)(F)F)nc3ccccc23)cc1 , test system Ubiquitin carboxyl-terminal hydrolase 1/WD repeat-containing protein 48 (Homo sapiens), was 6200

Readout IC50 for FC(F)(F)c1ccccc1-c1nc(NCc2ccc(-c3cccc(Cl)c3)cc2)c2ccccc2n1 , test system Ubiquitin carboxyl-terminal hydrolase 1/WD repeat-containing protein 48 (Homo sapiens), was 2700

Readout IC50 for Cc1cnc(-c2ccccc2C(C)C)nc1NC(C)(C)c1ccc(-n2ccnn2)cc1 , test system Ubiquitin carboxyl-terminal hydrolase 1/WD repeat-containing protein 48 (Homo sapiens), was 590

Readout IC50 for CC(C)c1ccccc1-c1nc(NCc2ccc(-c3cccnc3)cc2)c2ccsc2n1 , test system Ubiquitin carboxyl-terminal hydrolase 1/WD repeat-containing protein 48 (Homo sapiens), was 280

Readout IC50 for [2H]C([2H])([2H])C([2H])(c1ccccc1-c1ncc(C)c(NC(C)(C)c2ccc(-n3ccnn3)cc2)n1)C([2H])([2H])[2H] , test system Ubiquitin carboxyl-terminal hydrolase 1/WD repeat-containing protein 48 (Homo sapiens), was 760

Readout IC50 for Cc1cnc(-c2ccccc2CO)nc1NCc1ccc(-c2cccnc2)cc1 , test system Ubiquitin carboxyl-terminal hydrolase 1/WD repeat-containing protein 48 (Homo sapiens), was 10500

Readout IC50 for Cc1cnc(-c2ccccc2C(C)C)nc1NCc1ccc(-c2ccc(F)nc2)cc1 , test system Ubiquitin carboxyl-terminal hydrolase 1/WD repeat-containing protein 48 (Homo sapiens), was 80

Readout IC50 for Cc1cccc(C(CO)Nc2nc(-c3ccccc3C(C)C)ncc2C)c1 (configuration not stated) , test system Ubiquitin carboxyl-terminal hydrolase 1/WD repeat-containing protein 48 (Homo sapiens), was 21000

Readout IC50 for Cc1cnc(-c2ccccc2C(C)C)nc1NCc1ccc(-n2ccnc2)cc1 , test system Ubiquitin carboxyl-terminal hydrolase 1/WD repeat-containing protein 48 (Homo sapiens), was 300

Readout IC50 for FC(F)(F)c1ccccc1-c1nc(NCc2ccc(C3CCCCC3)cc2)c2ccccc2n1 , test system Ubiquitin carboxyl-terminal hydrolase 1/WD repeat-containing protein 48 (Homo sapiens), was 9800

Readout IC50 for FC(F)c1ccccc1-c1nc(NCc2ccc(-c3cccnc3)cc2)c2ccccc2n1 , test system Ubiquitin carboxyl-terminal hydrolase 1/WD repeat-containing protein 48 (Homo sapiens), was 1400

----------
target: Ubiquitin carboxyl-terminal hydrolase 1/WD repeat-containing protein 48 (Homo sapiens)
Parameter pIC50: see the listing below.
# pIC50 = -log10(concentration in molar units)

- smi: "Brc1ccccc1-c1nc(NCc2ccc(-c3cccnc3)cc2)c2ccccc2n1"
  pIC50: 5.80
- smi: "FC(F)(F)c1ccccc1-c1nc(NCc2ccc(-c3ccc(Cl)c(Cl)c3)cc2)c2ccccc2n1"
  pIC50: 5.66
- smi: "Cc1cnc(-c2ccccc2C(C)C)nc1NCC1CCN(c2cccnc2)CC1"
  pIC50: 7.10
- smi: "Cc1ccccc1-c1nc(NCc2ccc(-c3cccnc3)cc2)c2ccccc2n1"
  pIC50: 5.96
- smi: "Cc1cccc(CNc2nc(-c3ccccc3C(C)C)ncc2C)c1"
  pIC50: 6.89
- smi: "Cc1nc(-c2ccccc2C(C)C)nc(NCc2ccc(-c3cccnc3)cc2)c1C"
  pIC50: 6.92

Okay, next one:
Readout pIC50 for Cc1cnc(-c2ccccc2C(C)C)nc1NCc1ccc(-c2ccnc(C(F)(F)F)c2)cc1 , test system Ubiquitin carboxyl-terminal hydrolase 1/WD repeat-containing protein 48 (Homo sapiens), was 6.49

FYI, the data here is from ChEMBL document CHEMBL3352044.
